# system: DNA polymerase III α subunit truncation α1–280 (E. coli, UniProt P10443 1-280)
# Sequence (P10443 1-280): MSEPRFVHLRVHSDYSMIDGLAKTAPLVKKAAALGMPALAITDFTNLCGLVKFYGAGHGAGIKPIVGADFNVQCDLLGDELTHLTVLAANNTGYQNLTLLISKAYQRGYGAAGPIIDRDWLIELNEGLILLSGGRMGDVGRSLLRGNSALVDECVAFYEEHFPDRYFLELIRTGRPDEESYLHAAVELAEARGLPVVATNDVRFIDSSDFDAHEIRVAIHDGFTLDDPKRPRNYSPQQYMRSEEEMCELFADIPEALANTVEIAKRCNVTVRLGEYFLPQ
# assay_protocol: other fluorescence titration
property_label: pKd
Please note pKd is a logarithmic value: minus log10 of concentration in mol/L. Answer with that number alone.

Kindly indicate its recorded pKd. Item: UmuD, wild-type full-length (homodimer UmuD2) (natural protein) MLFIKPADLREIVTFPLFSDLVQCGFPSPAADYVEQRIDLNQLLIQHPSATYFVKASGDSMIDGGISDGDLLIVDSAITASHGDIVIAAVDGEFTVKKLQLRPTVQLIPMNSAYSPITISSEDTLDVFGVVIHVVKAMR 5.14

Specify reported pKd for the binder shown: UmuD3A (UmuD containing the triple mutation T14A, L17A and F18A) (natural protein) MLFIKPADLREIVAFPAASDLVQCGFPSPAADYVEQRIDLNQLLIQHPSATYFVKASGDSMIDGGISDGDLLIVDSAITASHGDIVIAAVDGEFTVKKLQLRPTVQLIPMNSAYSPITISSEDTLDVFGVVIHVVKAMR 5.03

Could you please provide reported pKd for UmuD-S60A, non-cleavable full-length UmuD variant (natural protein) MLFIKPADLREIVTFPLFSDLVQCGFPSPAADYVEQRIDLNQLLIQHPSATYFVKASGDAMIDGGISDGDLLIVDSAITASHGDIVIAAVDGEFTVKKLQLRPTVQLIPMNSAYSPITISSEDTLDVFGVVIHVVKAMR ? Thanks! 4.99

Report measured pKd; entry is UmuD′, cleaved form of UmuD (homodimer UmuD′2) (natural protein) GFPSPAADYVEQRIDLNQLLIQHPSATYFVKASGDSMIDGGISDGDLLIVDSAITASHGDIVIAAVDGEFTVKKLQLRPTVQLIPMNSAYSPITISSEDTLDVFGVVIHVVKAMR 5.07

Origin of the recorded values: paper PMC3384344
